molecular target: T1, recombinant human TfR-1, His-tagged (Sino Biological 11020-H07H) (human, UniProt P02786 89-760); experiment: SPR, His-captured TfR1
T1 construct: bought; His-tagged; also called hTfR1; hTfR-1
T1 sequence (P02786 89-760 limits assumed): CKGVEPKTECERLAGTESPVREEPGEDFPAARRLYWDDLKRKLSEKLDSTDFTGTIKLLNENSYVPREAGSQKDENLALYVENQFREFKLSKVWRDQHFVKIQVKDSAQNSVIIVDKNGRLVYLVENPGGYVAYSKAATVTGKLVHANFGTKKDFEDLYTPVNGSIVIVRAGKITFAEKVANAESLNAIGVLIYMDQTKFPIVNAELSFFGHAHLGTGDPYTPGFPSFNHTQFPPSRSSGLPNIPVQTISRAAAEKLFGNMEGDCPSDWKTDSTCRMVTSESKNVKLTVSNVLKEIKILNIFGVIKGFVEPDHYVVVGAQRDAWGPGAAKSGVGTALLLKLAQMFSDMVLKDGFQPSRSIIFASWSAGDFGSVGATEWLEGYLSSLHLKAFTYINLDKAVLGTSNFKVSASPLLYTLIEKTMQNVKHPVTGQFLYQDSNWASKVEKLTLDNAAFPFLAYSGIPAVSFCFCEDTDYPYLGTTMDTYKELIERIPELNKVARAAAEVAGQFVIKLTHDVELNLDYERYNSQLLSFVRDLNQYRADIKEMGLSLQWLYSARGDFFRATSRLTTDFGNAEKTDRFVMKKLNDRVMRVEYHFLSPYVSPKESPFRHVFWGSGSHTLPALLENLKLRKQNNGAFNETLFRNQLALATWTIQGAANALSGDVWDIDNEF
Observed property: kon (M⁻¹ s⁻¹)
Just the number in M⁻¹ s⁻¹, nothing appended.

Some solved entries appear below for comparison.
Exercise: Any idea what kon was measured for Clone H variant 3 VNAR-hFc (Fc fusion, not shown: a dimerising Fc or GST) ARVDQTPQTITKETGESLTINCVLRDSNCELSSTYWYRKKSGSTNEESISKGGRYVETVNSGSKSFSLRINDLVVEDSGTYRCNVQQFPSWGNGRYWCDVYGGGTAVTVNA ?
Key: 53900

Exercise: Any idea what kon was measured for Clone H variant 1 VNAR-hFc (Fc fusion, not shown: a dimerising Fc or GST, also called clone H var) ARVDQTPQTITKETGESLTINCVLRDSNCELSSTYWYRKKSGSTNEESISKGGRYVETVNSGSKSFSLRINDLVVEDSGTYRCNVVQWPSSSNGRYWCDVYGGGTAVTVNA ?
Key: 50800

Exercise: Any idea what kon was measured for Clone H variant 8 VNAR-hFc (Fc fusion, not shown: a dimerising Fc or GST) ARVDQTPQTITKETGESLTINCVLRDSNCELSSTYWYRKKSGSTNEESISKGGRYVETVNSGSKSFSLRINDLVVEDSGTYRCNVQQFPSRHNGRYWCDVYGGGTAVTVNA ?
Key: 38000

Next:
Exercise: Any idea what kon was measured for Clone H variant 4 VNAR-hFc (Fc fusion, not shown: a dimerising Fc or GST) ARVDQTPQTITKETGESLTINCVLRDSNCELSSTYWYRKKSGSTNEESISKGGRYVETVNSGSKSFSLRINDLVVEDSGTYRCNVQQFPSRFNGRYWCDVYGGGTAVTVNA ?
Key: 115000

Numbers sourced from patent US20210403591A1.
